Assignment: determine reported pKi for the given molecules.
biological target: Delta-type opioid receptor (Homo sapiens, UniProt P41143); test: Displacement of [3H]DPDPE from Myc-tagged delta opioid receptor expressed in HEK293 cells after 60 mins by liquid scintillation counter
Sequence (P41143 whole entry): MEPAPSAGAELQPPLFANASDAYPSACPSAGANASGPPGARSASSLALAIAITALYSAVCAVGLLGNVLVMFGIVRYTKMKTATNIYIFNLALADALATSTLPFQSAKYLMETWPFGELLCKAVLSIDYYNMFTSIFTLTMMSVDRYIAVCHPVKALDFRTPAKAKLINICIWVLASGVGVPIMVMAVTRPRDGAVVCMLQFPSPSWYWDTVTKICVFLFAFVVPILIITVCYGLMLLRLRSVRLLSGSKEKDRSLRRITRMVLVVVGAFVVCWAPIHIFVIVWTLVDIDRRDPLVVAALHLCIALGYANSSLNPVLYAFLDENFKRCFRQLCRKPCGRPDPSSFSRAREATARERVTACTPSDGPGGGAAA
As a rule, pKi stands for the negative log10 of the concentration, concentration in M.

# input Sample C=C(C(N)=O)[C@@H](NC(=O)C(=C)[C@@H](NC(=O)[C@@H]1CCCN1C(=O)[C@@H](N)Cc1ccc(O)cc1)c1ccccc1)c1ccccc1 — what was its pKi?
# output 4.96

# input // pKi lookup, key: C=C(C(N)=O)[C@@H](NC(=O)[C@H](Cc1c[nH]c2ccccc12)NC(=O)[C@@H]1CCCN1C(=O)[C@@H](N)Cc1ccc(O)cc1)c1ccc(Cl)cc1
# output 4.97

# input What measured pKi goes with C=C(C(N)=O)[C@@H](NC(=O)[C@H](Cc1c[nH]c2ccccc12)NC(=O)[C@@H]1CCCN1C(=O)[C@@H](N)Cc1ccc(O)cc1)c1cccc2ccccc12 ?
# output 4.07

----------
For each of the compounds below, state its Ki.
biological target: Mu-type opioid receptor (Homo sapiens, UniProt P35372)
Sequence (P35372 whole entry): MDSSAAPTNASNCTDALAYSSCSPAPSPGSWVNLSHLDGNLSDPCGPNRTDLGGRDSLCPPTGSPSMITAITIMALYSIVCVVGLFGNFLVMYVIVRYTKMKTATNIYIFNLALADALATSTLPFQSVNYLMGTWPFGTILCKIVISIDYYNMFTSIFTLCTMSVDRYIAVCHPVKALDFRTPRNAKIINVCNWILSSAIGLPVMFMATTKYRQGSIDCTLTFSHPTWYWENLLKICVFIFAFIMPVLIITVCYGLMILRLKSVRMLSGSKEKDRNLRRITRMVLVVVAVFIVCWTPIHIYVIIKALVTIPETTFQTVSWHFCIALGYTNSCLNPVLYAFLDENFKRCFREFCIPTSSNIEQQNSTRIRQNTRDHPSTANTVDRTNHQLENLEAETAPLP
Write the number in nM without appending the unit.

# input Item under review: C=C(C(N)=O)[C@@H](NC(=O)[C@H](Cc1c[nH]c2ccccc12)NC(=O)[C@@H]1CCCN1C(=O)[C@@H](N)Cc1ccc(O)cc1)c1ccccc1 . Reported Ki?
# output 0.535

# input For the compound C=C(C(N)=O)[C@@H](NC(=O)[C@H](Cc1c[nH]c2ccccc12)NC(=O)[C@@H]1CCCN1C(=O)[C@@H](N)Cc1ccc(O)cc1)c1ccc(OC)cc1 , what Ki is on record?
# output 4.83

# input Suppose we examine the compound C=C(C(N)=O)[C@@H](NC(=O)[C@H](Cc1c[nH]c2ccccc12)NC(=O)[C@@H]1CCCN1C(=O)[C@@H](N)Cc1ccc(O)cc1)c1ccc2ccccc2c1 ; what Ki value has been reported?
# output 27.4

# input Returns the measured Ki for the input compound. Input: C=C(C(N)=O)[C@@H](NC(=O)[C@H](Cc1c[nH]c2ccccc12)NC(=O)[C@@H]1CCCN1C(=O)[C@@H](N)Cc1ccc(O)cc1)c1ccc(F)cc1
# output 13.7

# input Quick one: Ki for C=C(C(N)=O)[C@@H](NC(=O)[C@H](Cc1c[nH]c2ccccc12)NC(=O)[C@@H]1CCCN1C(=O)[C@@H](N)Cc1ccc(O)cc1)c1ccccc1Cl ?
# output 5.48

# input Returns the measured Ki for the input compound. Input: C=C(C(N)=O)[C@@H](NC(=O)[C@H](Cc1c[nH]c2ccccc12)NC(=O)[C@@H]1CCCN1C(=O)[C@@H](N)Cc1ccc(O)cc1)c1cccc2ccccc12
# output 26

----------
target: Delta-type opioid receptor (Mus musculus) (UniProt P32300); assay: Agonist activity at delta opioid receptor in Kunming mouse vas deferens assessed as inhibition of electrically-stimulated muscle contraction in presence of delta opioid receptor antagonist naltrindole; format: functional, tissue-based
Sequence (P32300 whole entry): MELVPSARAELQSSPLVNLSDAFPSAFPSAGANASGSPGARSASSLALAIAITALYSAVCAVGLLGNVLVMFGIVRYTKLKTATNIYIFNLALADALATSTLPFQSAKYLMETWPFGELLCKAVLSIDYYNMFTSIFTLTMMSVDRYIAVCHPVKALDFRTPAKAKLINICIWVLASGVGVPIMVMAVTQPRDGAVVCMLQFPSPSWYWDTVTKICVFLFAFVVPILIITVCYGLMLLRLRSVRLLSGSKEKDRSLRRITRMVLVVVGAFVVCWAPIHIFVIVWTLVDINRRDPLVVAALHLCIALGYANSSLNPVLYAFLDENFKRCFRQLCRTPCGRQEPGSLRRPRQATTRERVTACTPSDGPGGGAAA
Active and inactive are the calls of the source. The calls are words filed in the database; no cut-off is given here.
observation_type: inhibition

INSERT INTO results (line_notation, observation_type, endpoint_result) VALUES
  ('C=C(C(N)=O)[C@@H](NC(=O)[C@H](Cc1c[nH]c2ccccc12)NC(=O)[C@@H]1CCCN1C(=O)[C@@H](N)Cc1ccc(O)cc1)c1ccccc1', 'inhibition', 'inactive'),
  ('C=C(C(N)=O)[C@@H](NC(=O)[C@H](Cc1c[nH]c2ccccc12)NC(=O)[C@@H]1CCCN1C(=O)[C@@H](N)Cc1ccc(O)cc1)c1cccc(Cl)c1', 'inhibition', 'inactive'),
  ('C=C(C(N)=O)[C@@H](NC(=O)[C@H](Cc1c[nH]c2ccccc12)NC(=O)[C@@H]1CCCN1C(=O)[C@@H](N)Cc1ccc(O)cc1)c1ccco1', 'inhibition', 'inactive');
